- measuredTarget: Lck (Homo sapiens)
- Construct: Kinases are expressed as either kinase domains or full length constructs; made in house
- Sequence (P06239 whole entry, species assumed, the tested form may be a part): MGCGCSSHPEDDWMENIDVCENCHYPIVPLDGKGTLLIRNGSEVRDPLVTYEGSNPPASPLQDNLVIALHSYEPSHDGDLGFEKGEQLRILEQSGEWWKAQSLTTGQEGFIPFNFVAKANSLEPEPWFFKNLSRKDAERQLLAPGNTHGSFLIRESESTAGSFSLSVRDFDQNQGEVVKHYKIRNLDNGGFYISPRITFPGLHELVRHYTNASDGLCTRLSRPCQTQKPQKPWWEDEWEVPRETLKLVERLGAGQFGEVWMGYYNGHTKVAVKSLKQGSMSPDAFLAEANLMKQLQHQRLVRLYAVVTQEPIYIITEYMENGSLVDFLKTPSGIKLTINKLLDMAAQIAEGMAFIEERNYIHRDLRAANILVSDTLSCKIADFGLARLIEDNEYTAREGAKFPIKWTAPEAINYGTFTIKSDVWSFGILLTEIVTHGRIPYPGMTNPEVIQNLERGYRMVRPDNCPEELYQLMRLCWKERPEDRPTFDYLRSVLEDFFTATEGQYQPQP
- procedureDetails: Kinase inhibition assay (33P transfer), Lck
- Format: biochemical
- details: read-out: Lck-1
- Text: The inhibitor compounds described herein are screened in the following manner. […] Kinases are expressed as either kinase domains or full length constructs fused to glutathione S-transferase (GST) or polyHistidine tagged fusion proteins in either E. colior Baculovirus-High Five expression systems. […]
Examples of compounds with documented IC50 follow.

Please review the following examples before continuing.
1) CC(C)(C)c1cc(Nc2ncnc(Nc3cccc(Cl)c3)n2)[nH]n1: 1.16 to 6.98 µM
2) COc1cc(Nc2ncnc(Nc3cc(-c4ccc(C)cc4)n[nH]3)n2)cc(OC)c1OC: < 0.923 µM
3) COc1cccc(Nc2ncnc(N(C)c3cccc(Cl)c3)n2)c1: 7.02 to 10.2 µM
4) COc1cc(Nc2ncnc(-c3cccnc3NCc3ccc(F)cc3)n2)cc(OC)c1OC: 5.19 to 7.57 µM
5) Nc1nc2ccccc2n1-c1ncnc(Nc2ccc(Cl)c(Cl)c2)n1: 1.07 to 6.45 µM
6) COc1cc(Nc2ncnc(Nc3cccc4ccccc34)n2)cc(OCCN2CCOCC2)c1OC: < 0.796 µM
7) Nc1ncnc(Nc2ccc3c(cnn3Cc3ccccc3)c2)n1: > 14.2 µM
8) O=c1[nH]c2ccccc2n1-c1ncnc(Nc2nccc3ccccc23)n1: 6.75 to 9.85 µM
9) COC(=O)C(c1ccccc1)c1ncnc(Nc2cc(OC)c(OC)c(OC)c2)n1 (stereo not drawn): 0.975 to 5.85 µM
10) Cc1ccc2c(c1)CCCN2c1ncnc(NCc2cccnc2)n1: > 13.5 µM

In: # input compound: CC(=O)Nc1ccc(Nc2ncnc(-n3c(N)nc4ccccc43)n2)cc1 ; wanted: its IC50
Out: 1.11 to 6.66 µM

In: And then CN(c1cccc(Cl)c1)c1ncnc(Nc2ccc(CC(=O)O)cc2)n1 , what is it?
Out: > 12.2 µM

In: Now the compound COC(=O)Cc1cccc(Nc2ncnc(Nc3cccc(Br)c3)n2)c1
Out: 0.966 to 5.79 µM

In: Similarly, COc1ccc(Cl)cc1Nc1ncnc(Nc2cc(OC)c(OC)c(OC)c2)n1 ?
Out: < 0.957 µM

###

- measuredTarget: Zap-70 (Homo sapiens)
- Construct: Kinases are expressed as either kinase domains or full length constructs; made in house
- Sequence (P43403 whole entry, species assumed, the tested form may be a part): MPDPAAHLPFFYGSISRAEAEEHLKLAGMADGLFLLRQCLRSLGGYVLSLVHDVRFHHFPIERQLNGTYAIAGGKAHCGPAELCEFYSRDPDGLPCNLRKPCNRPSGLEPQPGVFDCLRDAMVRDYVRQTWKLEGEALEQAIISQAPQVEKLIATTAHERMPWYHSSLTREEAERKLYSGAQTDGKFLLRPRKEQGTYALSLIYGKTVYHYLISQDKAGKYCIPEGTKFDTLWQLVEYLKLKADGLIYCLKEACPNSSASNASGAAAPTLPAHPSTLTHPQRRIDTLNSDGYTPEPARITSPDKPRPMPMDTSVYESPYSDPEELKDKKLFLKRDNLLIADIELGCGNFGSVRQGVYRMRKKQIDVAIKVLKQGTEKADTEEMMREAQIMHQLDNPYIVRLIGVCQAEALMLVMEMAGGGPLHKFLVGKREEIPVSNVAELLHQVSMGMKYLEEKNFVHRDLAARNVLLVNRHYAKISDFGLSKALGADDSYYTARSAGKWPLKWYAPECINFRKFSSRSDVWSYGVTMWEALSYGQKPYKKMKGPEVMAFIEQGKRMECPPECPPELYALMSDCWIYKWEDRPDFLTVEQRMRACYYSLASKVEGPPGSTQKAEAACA
- procedureDetails: Kinase inhibition assay (33P transfer), Zap-70
- Assay type: biochemical
- details: read-out: Zap-1
valueKind: IC50

1) COc1ccc(CNc2ncnc(Nc3ccc4c(cnn4Cc4ccccc4)c3)n2)cc1OC: 7.49 to 9.62 µM

In: Quick check: IC50 of CN(c1cccc(Cl)c1)c1ncnc(NC2CCN(Cc3ccccc3)CC2)n1 ?
Out: > 11 µM

In: Quick one: NC(=O)Cc1ccc(Nc2ncnc(Nc3cc(-c4ccccc4)n[nH]3)n2)cc1
Out: 6.21 to 9.06 µM

In: Same lookup for c1ccc(Cn2ncc3cc(Nc4ncnc(Nc5ncccn5)n4)ccc32)cc1 , please.
Out: > 11.4 µM

###

Catalogue of compounds with associated pIC50
- measuredTarget: Tek (Homo sapiens, UniProt Q02763)
- Sequence (Q02763 23-1124, species assumed): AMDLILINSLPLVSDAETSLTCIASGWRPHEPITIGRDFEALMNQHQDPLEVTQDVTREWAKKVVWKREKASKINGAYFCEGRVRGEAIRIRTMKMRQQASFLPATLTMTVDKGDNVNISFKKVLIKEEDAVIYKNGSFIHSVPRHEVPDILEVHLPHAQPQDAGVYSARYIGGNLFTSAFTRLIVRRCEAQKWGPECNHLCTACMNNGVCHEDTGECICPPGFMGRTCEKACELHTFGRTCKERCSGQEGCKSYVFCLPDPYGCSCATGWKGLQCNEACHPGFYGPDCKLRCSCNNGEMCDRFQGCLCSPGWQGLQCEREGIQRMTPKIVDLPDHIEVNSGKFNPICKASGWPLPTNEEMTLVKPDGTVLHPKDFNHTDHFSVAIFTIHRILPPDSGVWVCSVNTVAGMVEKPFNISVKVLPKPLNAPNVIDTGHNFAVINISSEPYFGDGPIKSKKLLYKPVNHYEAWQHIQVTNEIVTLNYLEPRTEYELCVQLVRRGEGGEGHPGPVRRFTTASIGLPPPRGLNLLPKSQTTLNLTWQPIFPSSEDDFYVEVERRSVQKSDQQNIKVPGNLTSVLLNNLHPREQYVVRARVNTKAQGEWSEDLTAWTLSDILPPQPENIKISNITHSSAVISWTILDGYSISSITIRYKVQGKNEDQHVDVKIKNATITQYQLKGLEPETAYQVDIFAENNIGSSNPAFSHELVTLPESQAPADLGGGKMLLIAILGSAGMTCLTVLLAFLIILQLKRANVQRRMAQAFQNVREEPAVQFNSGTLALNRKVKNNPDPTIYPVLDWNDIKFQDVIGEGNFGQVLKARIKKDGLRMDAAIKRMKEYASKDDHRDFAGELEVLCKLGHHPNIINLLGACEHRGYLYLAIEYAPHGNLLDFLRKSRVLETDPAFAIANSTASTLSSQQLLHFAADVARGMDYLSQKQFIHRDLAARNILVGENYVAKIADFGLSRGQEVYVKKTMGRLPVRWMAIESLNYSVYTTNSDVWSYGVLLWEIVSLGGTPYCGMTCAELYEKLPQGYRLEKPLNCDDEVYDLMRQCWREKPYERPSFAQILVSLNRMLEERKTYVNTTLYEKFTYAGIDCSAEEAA
pIC50: −log10 of the molar value.

Example entries and their recorded answers appear below.
1. Nc1nc2ccccc2n1-c1ncnc(Nc2ccc(-c3cnco3)cc2)n1: 5.19 to 5.97
2. COc1cc(Nc2ncnc(N[C@@H](CO)c3ccccc3)n2)cc(OC)c1OC: < 4.95
3. COc1cc(Nc2ncnc(-n3c(NCc4cccnc4)nc4ccccc43)n2)cc(OC)c1OC: < 5.03
4. COc1cc(Nc2ncnc(-n3ncc(-c4ccccc4)c3N)n2)cc(OC)c1OC: 4.97 to 5.08
5. O=c1[nH]c2ccccc2n1-c1ncnc(Nc2ccc(NS(=O)(=O)c3ccc([N+](=O)[O-])cc3)cc2)n1: 5.05 to 5.16
6. COc1cc(Nc2ncnc(N3CCC(O)CC3)n2)cc(OC)c1OC: < 4.90
7. COc1cc(Nc2ncnc(-n3c(NCc4ccccc4F)nc4ccccc43)n2)cc(OC)c1OC: < 5.05
8. COc1cc(Nc2ncnc(Nc3ccc(Cl)cc3F)n2)cc(OC)c1OC: < 4.96
9. COC(=O)c1ccc(-c2cc(Nc3ncnc(Nc4cc(OC)c(OC)c(OC)c4)n3)[nH]n2)cc1: < 5.03
10. COc1cc(Nc2ncnc(Nc3cc(C)ccc3C)n2)cc(OC)c1OC: 5.04 to 5.20

In: May I ask what pIC50 has been recorded for COc1cc(Nc2ncnc(-n3c(NCc4ccc(Br)cc4)nc4ccccc43)n2)cc(OC)c1OC ?
Out: < 5.10

In: And for COc1cc(Nc2ncnc(Nc3ccc(N4CCOCC4)cc3)n2)cc(OC)c1OC ?
Out: 4.99 to 5.10

In: Another compound: COc1cc(Nc2ncnc(-n3c(N[C@@H](C)c4ccccc4)nc4ccccc43)n2)cc(OC)c1OC
Out: < 5.04

In: Same again, this time with COc1cc(OC)cc(-c2nnc(Nc3ncnc(Nc4cc(OC)c(OC)c(OC)c4)n3)[nH]2)c1
Out: < 5.03

In: And for COc1ccc2c(c1)c(CCNC(C)=O)cn2-c1ncnc(Nc2cc(OC)c(OC)c(OC)c2)n1 ?
Out: < 5.04

In: Then what about the compound COc1cc(Nc2ncnc(-n3ccc4ccccc43)n2)cc(OC)c1OC ?
Out: < 4.92

###

- measuredTarget: Kdr (Homo sapiens)
- Construct: Kinases are expressed as either kinase domains or full length constructs; made in house
- Sequence (P35968 20-1356, species assumed): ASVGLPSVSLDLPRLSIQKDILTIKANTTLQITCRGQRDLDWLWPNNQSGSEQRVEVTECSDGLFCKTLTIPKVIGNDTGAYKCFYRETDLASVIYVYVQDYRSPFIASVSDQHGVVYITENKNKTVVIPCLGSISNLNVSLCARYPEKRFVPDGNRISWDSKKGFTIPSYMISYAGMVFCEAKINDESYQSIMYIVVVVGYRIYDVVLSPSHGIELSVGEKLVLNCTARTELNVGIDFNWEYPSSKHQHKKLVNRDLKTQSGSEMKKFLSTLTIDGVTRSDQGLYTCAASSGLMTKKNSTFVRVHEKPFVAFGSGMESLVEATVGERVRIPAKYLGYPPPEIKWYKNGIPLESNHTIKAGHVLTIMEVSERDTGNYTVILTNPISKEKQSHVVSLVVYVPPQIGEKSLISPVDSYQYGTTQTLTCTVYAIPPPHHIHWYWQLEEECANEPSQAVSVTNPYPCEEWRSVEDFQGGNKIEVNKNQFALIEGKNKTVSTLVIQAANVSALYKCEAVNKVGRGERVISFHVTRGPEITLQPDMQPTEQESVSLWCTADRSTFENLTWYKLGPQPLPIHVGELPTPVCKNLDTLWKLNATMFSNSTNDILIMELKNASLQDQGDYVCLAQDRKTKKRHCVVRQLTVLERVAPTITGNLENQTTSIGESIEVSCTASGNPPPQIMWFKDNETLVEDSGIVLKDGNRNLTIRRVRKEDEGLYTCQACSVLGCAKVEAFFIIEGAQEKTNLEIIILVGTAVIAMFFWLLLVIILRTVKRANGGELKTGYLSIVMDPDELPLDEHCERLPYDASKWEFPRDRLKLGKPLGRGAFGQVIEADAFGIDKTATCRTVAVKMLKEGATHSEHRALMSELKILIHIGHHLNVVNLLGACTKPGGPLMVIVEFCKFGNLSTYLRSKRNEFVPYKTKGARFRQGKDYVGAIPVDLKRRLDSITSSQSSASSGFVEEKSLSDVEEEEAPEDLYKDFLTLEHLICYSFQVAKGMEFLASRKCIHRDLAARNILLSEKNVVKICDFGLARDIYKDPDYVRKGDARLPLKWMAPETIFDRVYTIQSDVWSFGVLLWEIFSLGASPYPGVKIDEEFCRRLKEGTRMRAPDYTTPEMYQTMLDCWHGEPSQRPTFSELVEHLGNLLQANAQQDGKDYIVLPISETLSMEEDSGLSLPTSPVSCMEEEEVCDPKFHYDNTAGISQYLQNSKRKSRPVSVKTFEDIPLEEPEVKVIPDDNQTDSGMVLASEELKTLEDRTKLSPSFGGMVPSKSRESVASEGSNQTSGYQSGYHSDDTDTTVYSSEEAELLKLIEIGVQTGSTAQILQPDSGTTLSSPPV
- procedureDetails: Kinase inhibition assay (33P transfer), Kdr
- Assay type: biochemical
- details: read-out: KDR-1
- Source text: The inhibitor compounds described herein are screened in the following manner. […] Kinases are expressed as either kinase domains or full length constructs fused to glutathione S-transferase (GST) or polyHistidine tagged fusion proteins in either E. colior Baculovirus-High Five expression systems. […]
pIC50: −log10 of the molar value.
valueKind: pIC50

Example cases with answers are listed next.
1. c1ccc(CNc2nc3ccccc3n2-c2ncnc(Nc3cccc(Cc4nnn[nH]4)c3)n2)cc1: > 6.08
2. CN(c1cccc(Cl)c1)c1ncnc(Nc2ccc(NC(=O)OC(C)(C)C)cc2)n1: < 4.98

In: Lab request: please report pIC50 under test system Kdr (Homo sapiens) for COC(=O)c1ccc(-c2cc(Nc3ncnc(Nc4cc(OC)c(OC)c(OC)c4)n3)[nH]n2)cc1
Out: < 5.03

In: Same thing, different compound: CC(C)(C)c1cc(Nc2ncnc(Nc3cccc(CC(=O)O)c3)n2)[nH]n1
Out: 5.02 to 5.18

In: Entry Cc1ccc2c(c1)CCCN2c1ncnc(NCCc2cccnc2)n1 please
Out: < 4.89

In: Would you kindly repeat that for O=C(O)Cc1cccc(Nc2ncnc(Nc3cccc(Br)c3)n2)c1 ?
Out: 5.22 to 6.00

In: Next record, please: COc1cc(Nc2ncnc(Nc3ccc(Cl)c4ccccc34)n2)cc(OC)c1OC
Out: 5.10 to 5.26

In: Repeat with COc1ccc(Nc2ncnc(N3CCCc4ccc(C(F)(F)F)cc43)n2)cc1OC
Out: 5.25 to 6.03

In: Follow-up entry: O=c1[nH]c2ccccc2n1-c1ncnc(Nc2ccc(C(F)(F)F)cc2)n1
Out: < 4.92

In: Try the compound CN(c1cccc(Cl)c1)c1ncnc(NCC2CCCO2)n1 (centres unmarked)
Out: < 4.85

In: What about COc1cc(Nc2ncnc(NCCc3ccccc3)n2)cc(OC)c1OC ?
Out: 5.04 to 5.20

In: Another compound to check: Cc1ccc2c(c1)CCCN2c1ncnc(Nc2ccc3ncsc3c2)n1
Out: 5.19 to 5.97

In: What about this compound? NC(=O)c1ccccc1Nc1ncnc(-n2c(N)nc3ccccc32)n1
Out: 4.89 to 5.00

In: Note, next up: COc1cc(Nc2ncnc(-c3cccnc3Nc3cccc(C(N)=O)c3)n2)cc(OC)c1OC
Out: > 6.07

In: For COc1cc(Nc2ncnc(Nc3n[nH]c(Nc4ccc(Cl)cc4)n3)n2)cc(OC)c1OC then?
Out: 5.29 to 6.07

In: Another compound to look at: O=C(O)Cc1cccc(Nc2ncnc(Nc3cc(-c4ccco4)n[nH]3)n2)c1
Out: > 5.97

In: // same read-out, input: COc1cc(Nc2ncnc(-n3c(NCc4ccccc4Cl)nc4ccccc43)n2)cc(OC)c1OC
Out: > 6.11

In: Same question for COc1cc(Nc2ncnc(-n3c(NCc4ccc(F)cc4)nc4ccccc43)n2)cc(OC)c1OC please.
Out: > 6.10

In: Now this one: Cc1cccc(Nc2ncnc(N(C)c3cccc(Cl)c3)n2)c1
Out: < 4.86

In: Param item: COc1cc(Nc2ncnc(-n3c(NCc4ccc(Cl)cc4)nc4ccccc43)n2)cc(OC)c1OC
Out: > 6.11
